Entries annotated with measured OD at 490 nm
molecular target: T1, Full length recombinant HBcAg (rHBcAg) encompassing residues 1-183 (hepatitis B virus, UniProt P03146 1-183); experiment: competition EIA, HBcAg coated 5 ug/ml, peptide 12.5 ug/ml together with mAb 4-2 (competitor); OD of bound mAb
T1 construct: range 1-183; also called hepatitis B virus core antigen
T1 sequence (P03146 whole entry, the tested form may be a part): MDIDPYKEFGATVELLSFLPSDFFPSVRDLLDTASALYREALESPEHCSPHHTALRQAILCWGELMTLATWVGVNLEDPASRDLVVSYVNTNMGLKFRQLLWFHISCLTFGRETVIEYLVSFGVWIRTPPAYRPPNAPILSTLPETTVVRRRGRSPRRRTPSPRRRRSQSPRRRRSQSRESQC
Just the number please, in OD, no unit attached.

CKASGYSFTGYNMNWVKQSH (also called Peptide # 26) [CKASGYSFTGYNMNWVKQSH (SEQ. ID. No. 29)] | 1.27
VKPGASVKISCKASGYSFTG (also called Peptide # 25) [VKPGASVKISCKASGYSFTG (SEQ. ID. No. 28)] | 1.21
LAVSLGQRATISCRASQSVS [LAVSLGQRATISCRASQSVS (SEQ. ID. No. 16)] | 1.04
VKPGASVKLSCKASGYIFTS (also called Peptide # 2; Pept. #2) [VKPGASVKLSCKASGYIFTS (SEQ. ID. No. 5)] | 0.824
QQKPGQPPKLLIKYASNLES [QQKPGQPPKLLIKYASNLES (SEQ. ID. No. 19)] | 1.24

Could you now look at the following binder, please?
// OD at 490 nm lookup, binder = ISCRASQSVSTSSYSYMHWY [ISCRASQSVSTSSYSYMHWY (SEQ. ID. No. 17)] , result: 1.44
